Molecular target: MAL^TIR (Homo sapiens, UniProt P58753)
Construct: MAL (residues 79–221); 6xHis; made in house; host or cells: E. coli BL21 (DE3)
Sequence (P58753 79-221): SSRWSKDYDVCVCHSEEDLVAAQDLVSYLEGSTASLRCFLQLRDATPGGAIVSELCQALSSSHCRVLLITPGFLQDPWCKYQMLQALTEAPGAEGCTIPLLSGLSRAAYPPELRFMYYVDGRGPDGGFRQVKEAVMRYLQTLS
Assay: T‐Surf phage library (P8 and P3) selection against MAL^TIR, four rounds, NGS read counts
Type: binding
Conditions: P3_MAL pool: P3 T-Surf phage library, 4th round of selection against MAL TIR, share of NGS reads
Quantity kind: Population (%)

A = YAFTGHLHRYLVRRGV
B = RVFLSHLRHHLQAKDH
Prompt: Population comparison. Which is larger, A or B ? The response must carry the label of the picked entry.
Completion: B
(B: 0.0124%, A: 0.00338%)

A = PNLRTKVLSYLMRTKT
B = HQWRNALTAAANLSGW
C = KTLAGLLYDHLFRLRL
Prompt: List the 3 entries from lowest Population to highest Population value. As an answer, provide the labels arranged in the order called for.
Completion: A, B, C
